# measurement target: myeloperoxidase (MPO) (Homo sapiens (Human))
# assay name: MPO peroxidation assay (Amplex Red assay)
# Assay type: biochemical
# settings: potency range class
Assignment: determine reported IC50 for the given compounds.

Worked cases, answers included:
{"sample smiles": "Nc1cc(Cc2cnn(-c3ccc(=O)[nH]c3)c2)c2nn[nH]c2n1", "IC50": "101 to 999 nM"}
{"sample smiles": "Nc1cc(Cc2cnn(-c3ccccn3)c2)c2nn[nH]c2n1", "IC50": "1 to 100 nM"}
{"sample smiles": "Nc1cc(Cc2cnn(Cc3cccc([C@@H]4CCNC4)c3)c2)c2nn[nH]c2n1", "IC50": "1 to 100 nM"}

Now let's try a different one.
Q: Please look up its IC50: Cc1[nH]c(-c2ccccc2)nc1-c1cccc(Cn2cc(Cc3cc(N)nc4[nH]nnc34)cn2)c1
A: 1 to 100 nM

---

# measurement target: myeloperoxidase (MPO) (Homo sapiens (Human), UniProt P05164)
# Sequence (P05164 49-745): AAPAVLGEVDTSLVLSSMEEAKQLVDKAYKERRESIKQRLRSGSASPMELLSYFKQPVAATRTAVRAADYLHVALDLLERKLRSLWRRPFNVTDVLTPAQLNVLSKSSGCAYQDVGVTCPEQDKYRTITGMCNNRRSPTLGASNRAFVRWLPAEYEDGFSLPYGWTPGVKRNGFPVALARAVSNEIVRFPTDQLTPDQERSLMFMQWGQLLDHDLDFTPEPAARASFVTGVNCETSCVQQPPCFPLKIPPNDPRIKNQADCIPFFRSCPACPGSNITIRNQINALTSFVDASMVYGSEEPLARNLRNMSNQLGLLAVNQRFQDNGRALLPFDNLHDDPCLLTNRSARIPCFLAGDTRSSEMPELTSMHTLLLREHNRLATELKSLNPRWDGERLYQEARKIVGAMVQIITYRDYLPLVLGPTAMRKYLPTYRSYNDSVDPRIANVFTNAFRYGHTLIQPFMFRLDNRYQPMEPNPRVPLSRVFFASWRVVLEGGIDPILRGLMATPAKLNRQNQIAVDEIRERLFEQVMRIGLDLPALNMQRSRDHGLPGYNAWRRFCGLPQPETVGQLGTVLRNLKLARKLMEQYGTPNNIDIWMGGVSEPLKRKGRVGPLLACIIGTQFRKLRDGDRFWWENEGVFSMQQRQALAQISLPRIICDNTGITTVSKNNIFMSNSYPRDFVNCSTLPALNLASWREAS
# assay name: MPO chlorination assay (APF assay)
# Format: biochemical
# settings: potency range class
Please respond with reported IC50 for every item in the list.

Please review the following examples before continuing.
{"molecule": "Nc1cc(Cc2cnn(-c3cccc(COc4ccccc4)c3)c2)c2nn[nH]c2n1 [Example 36]", "measurement target": "myeloperoxidase (MPO) (Homo sapiens (Human), UniProt P05164)", "IC50": "0.101 to 0.999 µM"}
{"molecule": "Nc1cc(Cc2cnn(Cc3ccc4ccccc4c3)c2)c2nn[nH]c2n1 [Example 42]", "measurement target": "myeloperoxidase (MPO) (Homo sapiens (Human), UniProt P05164)", "IC50": "0.001 to 0.1 µM"}
{"molecule": "Nc1cc(Cc2cnn(CC3CCc4ccccc4C3)c2)c2nn[nH]c2n1 (centres unmarked) [Example 136]", "measurement target": "myeloperoxidase (MPO) (Homo sapiens (Human), UniProt P05164)", "IC50": "0.001 to 0.1 µM"}
{"molecule": "Nc1cc(Cc2cnn(Cc3cccc(Oc4cccc5c4CNC5)c3)c2)c2nn[nH]c2n1 [Example 231]", "measurement target": "myeloperoxidase (MPO) (Homo sapiens (Human), UniProt P05164)", "IC50": "0.001 to 0.1 µM"}
{"molecule": "Cc1ccc([C@@H]2CCNC2)cc1Cn1cc(Cc2cc(N)nc3[nH]nnc23)cn1 [Example 194]", "measurement target": "myeloperoxidase (MPO) (Homo sapiens (Human), UniProt P05164)", "IC50": "1 to 10 µM"}

# map each molecule to its IC50
1. Nc1cc(Cc2cnn(Cc3ccc(CN4CCOCC4)cc3)c2)c2nn[nH]c2n1 [Example 108]
2. Nc1cc(Cc2cnn(Cc3cn(Cc4ccccc4)nn3)c2)c2nn[nH]c2n1 [Example 107]

A:
0.101 to 0.999 µM
0.101 to 0.999 µM

Q: Record request: IC50 value, item NCc1cccc(Cn2cc(Cc3cc(N)nc4[nH]nnc34)cn2)c1 [Example 249]
A: 0.101 to 0.999 µM

---

Consider the following compounds; for each one, report its IC50.
# measurement target: UniProtKB P05164
# assay name: MPO chlorination assay (APF assay)
# Assay type: biochemical
# settings: potency range class

Observe how each entry below is paired with its result.
{"compound": "Nc1cc(Cc2cnn(Cc3cccc(OC(F)(F)F)c3)c2)c2nn[nH]c2n1 [Example 60]", "result": "1 to 100 nM"}
{"compound": "CC(C)(C)OC(=O)N1CCc2ccc(Cn3cc(Cc4cc(N)nc5[nH]nnc45)cn3)cc2C1 [Example 148]", "result": "101 to 999 nM"}
{"compound": "Nc1cc(Cc2cnn(Cc3cccc4ccccc34)c2)c2nn[nH]c2n1 [Example 41]", "result": "1 to 100 nM"}
{"compound": "Cc1nc(-c2ccc(Cl)cc2)sc1Cn1cc(Cc2cc(N)nc3[nH]nnc23)cn1 [Example 119]", "result": "101 to 999 nM"}

Record IC50 for all entries; do not skip any.
1. Nc1cc(Cc2cnn(CC3Cc4ccccc4C3)c2)c2nn[nH]c2n1 [Example 118]
2. Nc1cc(Cc2cnn(Cc3cccc(C4CCNCC4)c3)c2)c2nn[nH]c2n1 [Example 206]
3. Nc1cc(Cc2cnn(Cc3cccc(Oc4cccc5c4CNCC5)c3)c2)c2nn[nH]c2n1 [Example 237]
4. CC1NCCc2cc(Cn3cc(Cc4cc(N)nc5[nH]nnc45)cn3)ccc21 (stereo not shown) [Example 181]
5. Nc1cc(Cc2cnn(Cc3ccc(C(=O)N4CCOCC4)cc3)c2)c2nn[nH]c2n1 [Example 96]

A:
1: 1 to 100 nM; 2: 101 to 999 nM; 3: 1 to 100 nM; 4: 1 to 100 nM; 5: 101 to 999 nM
